Values from patent US8344010B2

Listing of entries alongside the reported inhibition at 10 µM.
molecular target: Human TRPV3 (Homo sapiens); construct: expressed in transfected cells; host or cells: CHO cells (selected with G-418); assay: 45Calcium uptake assay: inhibition of 2-APB induced cellular uptake of radioactive calcium; format: cell-based; conditions: 10 μM test compound; human TRPV3 expressing CHO cells; 2-APB 500 μM; read-out: Percentage Inhibition (10 μM)
Sequence (Q8NET8 whole entry): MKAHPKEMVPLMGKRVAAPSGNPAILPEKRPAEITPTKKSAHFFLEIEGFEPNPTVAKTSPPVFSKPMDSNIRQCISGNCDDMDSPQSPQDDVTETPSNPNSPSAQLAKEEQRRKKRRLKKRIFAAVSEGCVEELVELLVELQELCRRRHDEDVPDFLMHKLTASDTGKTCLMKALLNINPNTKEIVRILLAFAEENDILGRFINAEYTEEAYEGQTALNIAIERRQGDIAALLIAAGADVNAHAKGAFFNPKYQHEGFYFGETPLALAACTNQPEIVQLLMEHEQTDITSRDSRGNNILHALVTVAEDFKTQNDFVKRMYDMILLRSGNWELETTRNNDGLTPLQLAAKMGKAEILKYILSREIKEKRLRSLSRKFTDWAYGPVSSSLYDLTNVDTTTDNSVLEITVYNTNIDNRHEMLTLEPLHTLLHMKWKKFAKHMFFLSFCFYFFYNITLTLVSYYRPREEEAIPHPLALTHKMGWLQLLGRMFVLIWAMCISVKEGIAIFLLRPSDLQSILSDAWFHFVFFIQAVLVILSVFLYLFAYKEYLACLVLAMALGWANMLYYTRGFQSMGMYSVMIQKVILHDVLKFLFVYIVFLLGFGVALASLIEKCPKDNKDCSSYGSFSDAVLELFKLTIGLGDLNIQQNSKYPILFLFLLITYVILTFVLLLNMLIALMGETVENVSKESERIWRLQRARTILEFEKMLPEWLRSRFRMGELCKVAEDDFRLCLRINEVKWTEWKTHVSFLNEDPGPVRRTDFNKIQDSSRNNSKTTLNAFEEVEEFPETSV
measured-quantity: inhibition at 10 µM (%)

given-smiles	test-value
COc1cccc(/C=C/c2nc3ccccc3n2-c2ccc(C#N)cn2)c1OC(C)C	97.9
COc1cccc(/C=C/c2nc3cc(F)c(F)cc3n2-c2ccc(C#N)cn2)c1OCC(C)C	99.5
N#Cc1ccc(-n2c(/C=C/c3cccc(OC(F)F)c3OCC3CCC3)nc3cc(F)c(F)cc32)nc1	97.7
CCC(CC)Oc1c(/C=C/c2nc3ccccc3n2-c2ncc(Br)cn2)cccc1OC	89.2
COc1cccc(/C=C/c2nc3ccccc3n2-c2ccc([N+](=O)[O-])cn2)c1OC1CCCC1	81.7
COC(=O)c1ccc(-n2c(/C=C/c3cccc(OC)c3OC3CCCC3)nc3ccc(F)cc32)nc1	30.2
COc1cccc(/C=C/c2nc3ccccc3n2-c2ccc(C#N)cn2)c1OCC1CC1	97.7
COc1cccc(/C=C/c2nc3ccccc3n2-c2ccc(C(F)(F)F)cn2)c1OC(C)C	97.5
COc1cccc(/C=C/c2nc3cc(F)c(F)cc3n2-c2ccc(C#N)nn2)c1OC1CCCC1	97
COc1cccc(/C=C/c2nc3ccc(Cl)cc3n2-c2ccc(C#N)cn2)c1OC1CCCC1	97.7
COc1cccc(/C=C/c2nc3ccccc3n2-c2ccc(C#N)cn2)c1OCc1c(F)cccc1F	95.8
COc1cccc(/C=C/c2nc3cc(Cl)c(C(F)(F)F)cc3n2-c2ccc(C#N)cn2)c1OC1CCCC1	79.4
CCCCCOc1c(/C=C/c2nc3cc(F)cc(F)c3n2-c2ccc(C#N)cn2)cccc1OC	96.8
CCCCOc1c(/C=C/c2nc3ccccc3n2-c2ccc(C#N)cn2)cccc1OC	97
CCCCOc1c(/C=C/c2nc3cc(F)c(F)cc3n2-c2ccc(C#N)cn2)cccc1OC	99.9
COc1cccc(/C=C/c2nc3ccccc3n2-c2nc(C)c(C#N)s2)c1OC1CCCC1	76.9
CCOC(=O)c1ccc(-n2c(/C=C/c3cccc(OC)c3OC3CCCC3)nc3cc(F)c(F)cc32)nn1	75.5
COc1cccc(/C=C/c2nc3cc(F)c(F)cc3n2-c2ccc(C#N)cn2)c1OCC1CCC1	99
COc1cccc(/C=C/c2nc3ccccc3n2-c2ncc(C(F)(F)F)cc2Cl)c1OC1CCCC1	93.6
N#Cc1ccc(-n2c(/C=C/c3cccc(OC(F)F)c3OC3CCCC3)nc3cccnc32)nc1	100
COc1cccc(/C=C/c2nc3ccccc3n2Cc2ccc(C#N)cc2)c1OC1CCCC1	97.5
COc1cccc(/C=C/c2nc3cc(F)c(F)cc3n2-c2ccc(C#N)cn2)c1OC1CCCC1	99.1
COc1cccc(/C=C/c2nc3cc(OC(F)F)ccc3n2-c2ccc(C#N)cn2)c1OC1CCCC1	97.9
COc1cccc(/C=C/c2nc3ccc(Cl)cc3n2-c2ccc(C#N)cn2)c1OCC(C)C	98.4
COc1cccc(/C=C/c2nc3cc(Cl)cnc3n2-c2ccc(C#N)cn2)c1OCC1CCC1	98
CCC(CC)Oc1c(/C=C/c2nc3ccccc3n2-c2ccc(C#N)cn2)cccc1OC	99.1
